Test: Cytotoxicity against human HuH7 cells after 48 hrs by SRB assay
Conditions: Huh-7, 48 h
pIC50: −log10 of the molar value.
RESULT_TYPE: pIC50

>>> df
                                   compound  numeric_value
0  CC1CC(=O)c2c(cc3c(-c4c(O)cc(O)c5c(O)c6c(cc45)OC(C)CC6=O)c(O)cc(O)c3c2O)O1 (stereo unspecified)           5.33

====

System: Caco-2
Assay: Cytotoxicity against human Caco2 cells after 48 hrs by SRB assay
Conditions: Caco-2, 48 h
pIC50: −log10 of the molar value.
RESULT_TYPE: pIC50

                                   molecule  measured_target  numeric_value
0  CC1CC(=O)c2c(cc3c(-c4c(O)cc(O)c5c(O)c6c(cc45)OC(C)CC6=O)c(O)cc(O)c3c2O)O1 (stereo unspecified)           Caco-2           4.91
